# measurement target: biotinylated human DLL3 protein expressed as a human IgG1 fusion protein (human) (UniProt Q9NYJ7)
# Sequence (Q9NYJ7 27-492): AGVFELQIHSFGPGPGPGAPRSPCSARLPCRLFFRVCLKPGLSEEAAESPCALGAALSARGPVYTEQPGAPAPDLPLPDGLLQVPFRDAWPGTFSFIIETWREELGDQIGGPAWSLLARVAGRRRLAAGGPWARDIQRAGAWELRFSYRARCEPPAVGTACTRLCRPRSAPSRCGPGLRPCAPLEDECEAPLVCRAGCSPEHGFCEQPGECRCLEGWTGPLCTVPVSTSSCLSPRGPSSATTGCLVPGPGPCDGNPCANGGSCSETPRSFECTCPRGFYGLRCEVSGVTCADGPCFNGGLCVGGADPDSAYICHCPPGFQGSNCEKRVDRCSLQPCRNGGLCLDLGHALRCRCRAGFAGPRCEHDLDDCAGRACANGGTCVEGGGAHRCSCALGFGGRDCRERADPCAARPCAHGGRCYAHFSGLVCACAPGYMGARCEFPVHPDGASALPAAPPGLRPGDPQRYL
# experiment summary: Octet, biotinylated human DLL3-IgG1 fusion on streptavidin tips, single 50 nM, conditioned medium (relative KD)
This listing pairs binders with measured pKd.
# reply with the number alone; pKd is -log10 of concentration in mol/L

{"binder": "anti-DLL3 trispecific protein, DLL3 binder 3D02 (protein, part only; not given: anti-CD3 fragment and anti-albumin sdAb, part only) chain, part: EVQLVESGGGLVQPGGSLTLSCAASGSSVRFLSMAWYRQAPGKKRELVAGISRDGSTDYIDSVKGRFTISRDNAKNSVYLQMNSLRAEDTAVYYCYAYRWITRYTYWGQGTLVTVSSGGGGSGGGSGGGGSGGGSHHHHHH", "assay result": 7.92}
{"binder": "anti-DLL3 trispecific protein, DLL3 binder 3A08 (protein, part only; not given: CD3 binder and albumin binder, part only) chain, part: EVQLVESGGGLVQPGGSLTLSCAASGSSVGFLSMAWYRQAPGKKRELVAGISADGSTDYIRSVKGRFTISRDNAKNSVYLQMNSLRAEDTAVYYCYAYRWRTRYTYWGQGTLVTVSSGGGGSGGGSGGGGSGGGSHHHHHH", "assay result": 7.92}
{"binder": "anti-DLL3 trispecific protein, DLL3 binder 3E011 (protein, part only; not given: CD3 binder and albumin binder, part only) chain, part: EVQLVESGGGLVQPGGSLTLSCAASGSKVSFLSMAWYRQAPGKKRELVAGISRDGSTDYIDSVKGRFTISRDNAKNSVYLQMNSLRAEDTAVYYCYAYRWTTRYTFWGQGTLVTVSSGGGGSGGGSGGGGSGGGSHHHHHH", "assay result": 7.96}

Entry anti-DLL3 trispecific protein, DLL3 binder 3A06 (protein, part only; not given: anti-CD3 fragment and anti-albumin domain, part only) chain, part: EVQLVESGGGLVQPGGSLTLRCAASGSKVSFLSMAWYRQAPGKKRELVAGISADGSTDYVDSVKGRFTISRDNAKNSVYLQMNSLRAEDTAVYYCYAYRWTRRYTYWGQGTLVTVSSGGGGSGGGSGGGGSGGGSHHHHHH has what pKd?
7.80

Which pKd is reported for this binder? anti-DLL3 trispecific protein, DLL3 binder 4H09 (protein, part only; not given: anti-CD3 and anti-albumin domains, part only) chain, part: EVQLVESGGGLVQPGGSLTLSCAASGSSVSKLSMAWYRQAPGKKRELVAGISADGSTDYRDSVKGRFTISRDNAKNSVYLQMNSLRAEDTAVYYCYAYRWTYRYTYWGQGTLVTVSSGGGGSGGGSGGGGSGGGSHHHHHH
7.80

Reported pKd, binder anti-DLL3 trispecific protein, DLL3 binder 2E08 (protein, part only; not given: anti-CD3 fragment and anti-albumin sdAb, part only) chain, part: EVQLVESGGGLVQPGGSLTLSCVASGSRSSINAMGWYRRAPGKQRELVAGISADGSKVYADSVKGRFTISRDNAKNSVYLQMNSLRAEDTAVYYCYYFRTQSGSSMRYWGQGTLVTVSSGGGGSGGGSGGGGSGGGSHHHHHH : ____
7.77

# query: pKd of entry anti-DLL3 trispecific protein, DLL3 binder 1D08 (protein, part only; not given: CD3 binder and albumin binder, part only) chain, part: EVQLVESGGGLVQPGGSLTLSCVASGLTSSINAMGWYRRAPGKQRELVAGISSDGSKVYADSVKGRFTISRDNAKNSVYLQMNSLRAEDTAVYYCYYFRMVSGSSMRYWGQGTLVTVSSGGGGSGGGSGGGGSGGGSHHHHHH
8.00

These data points were gathered from patent US20200095340A1.
